Hi! I'm sharing some Ki results obtained with UniProt O43570.
Sequence (O43570 25-354): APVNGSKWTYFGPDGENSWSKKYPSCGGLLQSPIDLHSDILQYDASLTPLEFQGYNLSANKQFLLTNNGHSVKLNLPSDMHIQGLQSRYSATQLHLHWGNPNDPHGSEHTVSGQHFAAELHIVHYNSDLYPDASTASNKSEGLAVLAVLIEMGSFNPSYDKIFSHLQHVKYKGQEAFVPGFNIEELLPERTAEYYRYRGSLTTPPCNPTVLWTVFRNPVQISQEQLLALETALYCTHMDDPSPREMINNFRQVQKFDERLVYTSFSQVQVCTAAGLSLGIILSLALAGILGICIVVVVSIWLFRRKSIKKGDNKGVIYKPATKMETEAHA
Answer shape: numeric part, then the unit.

> print(dat)
                        structure.as.smiles   tested.target  measurement.label  measured.value
1  NS(=O)(=O)c1ccc(-n2c(-c3ccccc3O)nc(-c3ccccc3)c2-c2ccccc2)cc1  UniProt O43570                 Ki          5.2 µM
2  COc1ccc(-c2nc(-c3ccccc3)c(-c3ccccc3)n2-c2ccc(S(N)(=O)=O)cc2)cc1OC  UniProt O43570                 Ki          6.6 µM
3  CN(C)c1ccc(-c2nc(-c3ccccc3)c(-c3ccccc3)n2-c2ccc(S(N)(=O)=O)cc2)cc1  UniProt O43570                 Ki          6.8 µM

Task: Notebook: pull reported Ki for UniProt O43570, entry NS(=O)(=O)c1ccc(-n2c(-c3ccc(C(=O)O)cc3)nc(-c3ccccc3)c2-c2ccccc2)cc1
Result: 6.8 µM

Task: And what about the molecule NS(=O)(=O)c1ccc(-n2c(-c3ccccc3[N+](=O)[O-])nc(-c3ccccc3)c2-c2ccccc2)cc1 ?
Result: 6.2 µM

* * *

# Tested on: breast cancer cell line (MCF-7)
# assay details: Antiproliferative activity, MTT assay, MCF-7
# Type: cell-based
# condition label: Homo sapiens, MCF7; MCF-7, MTT; read-out: Antiproliferative Activity IC50 ± SEM MCF-7
Rule: IC50 below 3 µM gives satisfied. Equal to or above 3 µM gives not satisfied.

molecule	discrete label
NS(=O)(=O)c1ccc(-n2c(-c3ccccc3Br)nc(-c3ccccc3)c2-c2ccccc2)cc1	satisfied

Task: Is 3 µM strictly greater than the molecule's reported IC50? molecule: COc1ccccc1-c1nc(-c2ccccc2)c(-c2ccccc2)n1-c1ccc(S(N)(=O)=O)cc1
Result: satisfied

Task: And what about the molecule NS(=O)(=O)c1ccc(-n2c(-c3ccccc3O)nc(-c3ccccc3)c2-c2ccccc2)cc1 ?
Result: not satisfied

Task: And what about the molecule NS(=O)(=O)c1ccc(-n2c(-c3ccccc3[N+](=O)[O-])nc(-c3ccccc3)c2-c2ccccc2)cc1 ?
Result: not satisfied

Task: And what about the molecule NS(=O)(=O)c1ccc(-n2c(-c3c(Cl)cccc3Cl)nc(-c3ccccc3)c2-c2ccccc2)cc1 ?
Result: not satisfied

Task: And what about the molecule NS(=O)(=O)c1ccc(-n2c(-c3cccs3)nc(-c3ccccc3)c2-c2ccccc2)cc1 ?
Result: not satisfied

Task: And what about the molecule COc1cccc2c1C(=O)c1c(O)c3c(c(O)c1C2=O)C[C@@](O)(C(=O)CO)C[C@@H]3O[C@H]1C[C@H](N)[C@H](O)[C@H](C)O1 [Doxorubicin, reference compound] ?
Result: satisfied

* * *

measurement label: melting point

> print(dat)
                        structure.as.smiles  measurement.label  measured.value
1  COc1ccc(-c2nc(-c3ccccc3)c(-c3ccccc3)n2-c2ccc(S(N)(=O)=O)cc2)cc1OC      melting point   260 to 262 °C
2  CN(C)c1ccc(-c2nc(-c3ccccc3)c(-c3ccccc3)n2-c2ccc(S(N)(=O)=O)cc2)cc1      melting point   224 to 226 °C
3  NS(=O)(=O)c1ccc(-n2c(-c3ccccc3)nc(-c3ccccc3)c2-c2ccccc2)cc1      melting point   210 to 212 °C

Task: // query melting point value for entry CCOC(=O)c1ccc(-c2nc(-c3ccccc3)c(-c3ccccc3)n2-c2ccc(S(N)(=O)=O)cc2)cc1
Result: 216 to 218 °C

Task: And what about the compound NS(=O)(=O)c1ccc(-n2c(-c3ccc(Cl)cc3)nc(-c3ccccc3)c2-c2ccccc2)cc1 ?
Result: 230 to 232 °C

Task: And what about the compound NS(=O)(=O)c1ccc(-n2c(-c3ccccc3[N+](=O)[O-])nc(-c3ccccc3)c2-c2ccccc2)cc1 ?
Result: 280 to 282 °C

Task: And what about the compound NS(=O)(=O)c1ccc(-n2c(-c3cccs3)nc(-c3ccccc3)c2-c2ccccc2)cc1 ?
Result: 290 to 292 °C

Task: And what about the compound NS(=O)(=O)c1ccc(-n2c(-c3ccc(C(=O)O)cc3)nc(-c3ccccc3)c2-c2ccccc2)cc1 ?
Result: 200 to 202 °C

Task: And what about the compound COc1ccc(-c2nc(-c3ccccc3)c(-c3ccccc3)n2-c2ccc(S(N)(=O)=O)cc2)cc1 ?
Result: 235 to 237 °C

Task: And what about the compound NS(=O)(=O)c1ccc(-n2c(-c3c(Cl)cccc3Cl)nc(-c3ccccc3)c2-c2ccccc2)cc1 ?
Result: 214 to 216 °C

* * *

Hi! I'm sharing some pKi results obtained with hCA IX (Homo sapiens, UniProt Q16790).
When answering, recall that pKi equals minus log10 of the concentration in mol/L, and write that number alone.

Worked examples, 5 compounds total:
> print(dat)
                        structure.as.smiles  measurement.label  measured.value
1  NS(=O)(=O)c1ccc(-n2c(-c3ccccc3)nc(-c3ccccc3)c2-c2ccccc2)cc1                pKi            5.54
2  NS(=O)(=O)c1ccc(-n2c(-c3ccc(Cl)cc3)nc(-c3ccccc3)c2-c2ccccc2)cc1                pKi            5.09
3  NS(=O)(=O)c1ccc(-n2c(-c3ccccc3[N+](=O)[O-])nc(-c3ccccc3)c2-c2ccccc2)cc1                pKi            5.96
4  CCOC(=O)c1ccc(-c2nc(-c3ccccc3)c(-c3ccccc3)n2-c2ccc(S(N)(=O)=O)cc2)cc1                pKi            5.06
5  NS(=O)(=O)c1ccc(-n2c(-c3cccs3)nc(-c3ccccc3)c2-c2ccccc2)cc1                pKi            5.89

Task: // query pKi value for entry CN(C)c1ccc(-c2nc(-c3ccccc3)c(-c3ccccc3)n2-c2ccc(S(N)(=O)=O)cc2)cc1
Result: 5.03

* * *

// values below are reported viability at 96 h
# assay details: Cell viability assay (MTT)
# Assay type: cell-based
# condition label: human, MCF-10A mammary gland epithelial cells, MCF-10A cells, incubated 4 days
Numbers only here, please. The scale is %.

Task: // query viability at 96 h value for entry NS(=O)(=O)c1ccc(-n2c(-c3cccs3)nc(-c3ccccc3)c2-c2ccccc2)cc1 [Compound 5n]
Result: 90

Task: And what about the compound COc1ccccc1-c1nc(-c2ccccc2)c(-c2ccccc2)n1-c1ccc(S(N)(=O)=O)cc1 [Compound 5g] ?
Result: 90

Task: And what about the compound NS(=O)(=O)c1ccc(-n2c(-c3ccccc3Br)nc(-c3ccccc3)c2-c2ccccc2)cc1 [Compound 5b] ?
Result: 91

Task: And what about the compound NS(=O)(=O)c1ccc(-n2c(-c3ccccc3O)nc(-c3ccccc3)c2-c2ccccc2)cc1 [Compound 5e] ?
Result: 86

Task: And what about the compound NS(=O)(=O)c1ccc(-n2c(-c3ccccc3[N+](=O)[O-])nc(-c3ccccc3)c2-c2ccccc2)cc1 [Compound 5j] ?
Result: 88

Task: And what about the compound NS(=O)(=O)c1ccc(-n2c(-c3c(Cl)cccc3Cl)nc(-c3ccccc3)c2-c2ccccc2)cc1 [Compound 5d] ?
Result: 87

* * *

# tested target: hCA IX (Homo sapiens)
# Construct: made in house
# assay details: stopped-flow CO2 hydrase assay, hCA IX
# Type: biochemical
# condition label: selectivity for hCA IX over hCA XII
Threshold check on Selectivity Ratio hCA XII/ hCA IX: at or above 2 gives 1.0, strictly below gives 0.0.

> print(dat)
                                   compound  discrete.label
1  NS(=O)(=O)c1ccc(-n2c(-c3c(Cl)cccc3Cl)nc(-c3ccccc3)c2-c2ccccc2)cc1 [Compound 5d]             1.0
2  NS(=O)(=O)c1ccc(-n2c(-c3ccccc3O)nc(-c3ccccc3)c2-c2ccccc2)cc1 [Compound 5e]             1.0
3  CN(C)c1ccc(-c2nc(-c3ccccc3)c(-c3ccccc3)n2-c2ccc(S(N)(=O)=O)cc2)cc1 [Compound 5k]             0.0
4  NS(=O)(=O)c1ccc(-n2c(-c3ccc(O)cc3)nc(-c3ccccc3)c2-c2ccccc2)cc1 [Compound 5f]             0.0
5  NS(=O)(=O)c1ccc(-n2c(-c3ccccc3)nc(-c3ccccc3)c2-c2ccccc2)cc1 [Compound 5a]             0.0

Task: Kindly determine if Selectivity Ratio hCA XII/ hCA IX recorded for NS(=O)(=O)c1ccc(-n2c(-c3ccc(Cl)cc3)nc(-c3ccccc3)c2-c2ccccc2)cc1 [Compound 5c] is above or exactly 2.
Result: 0.0

Task: And what about the compound NS(=O)(=O)c1ccc(-n2c(-c3ccccc3[N+](=O)[O-])nc(-c3ccccc3)c2-c2ccccc2)cc1 [Compound 5j] ?
Result: 1.0

Task: And what about the compound COc1ccc(-c2nc(-c3ccccc3)c(-c3ccccc3)n2-c2ccc(S(N)(=O)=O)cc2)cc1OC [Compound 5i] ?
Result: 0.0

Task: And what about the compound CCOC(=O)c1ccc(-c2nc(-c3ccccc3)c(-c3ccccc3)n2-c2ccc(S(N)(=O)=O)cc2)cc1 [Compound 5m] ?
Result: 0.0

Task: And what about the compound NS(=O)(=O)c1ccc(-n2c(-c3ccccc3Br)nc(-c3ccccc3)c2-c2ccccc2)cc1 [Compound 5b] ?
Result: 1.0

Task: And what about the compound COc1ccc(-c2nc(-c3ccccc3)c(-c3ccccc3)n2-c2ccc(S(N)(=O)=O)cc2)cc1 [Compound 5h] ?
Result: 0.0

Task: And what about the compound NS(=O)(=O)c1ccc(-n2c(-c3ccc(C(=O)O)cc3)nc(-c3ccccc3)c2-c2ccccc2)cc1 [Compound 5l] ?
Result: 0.0

Task: And what about the compound NS(=O)(=O)c1ccc(-n2c(-c3cccs3)nc(-c3ccccc3)c2-c2ccccc2)cc1 [Compound 5n] ?
Result: 1.0

Task: And what about the compound COc1ccccc1-c1nc(-c2ccccc2)c(-c2ccccc2)n1-c1ccc(S(N)(=O)=O)cc1 [Compound 5g] ?
Result: 1.0
